molecular target: binding partner of C5A (XPA23); test: Biacore
// reported fold affinity vs original per item
Report the figure in fold without appending any unit label.

INSERT INTO assay_data (binder, property_name, measured_result) VALUES
  ('C5A (XPA23) VH P53S (antibody, V domains shown) VH: EVQLLESGGGLVQPGGSLRLSCAASGFTFSKYFMFWVRQAPGKGLEWVSVISSSGGMTRYADSVKGRFTISRDNSKNTLYLQMNSLRAEDTAVYYCARVGYGGNSDYWGQGTLVTVSS VL: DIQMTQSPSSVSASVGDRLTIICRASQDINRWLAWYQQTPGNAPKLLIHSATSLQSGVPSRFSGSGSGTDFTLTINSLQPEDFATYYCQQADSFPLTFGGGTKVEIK', 'fold affinity vs original', 0.03),
  ('C5A (XPA23) VH G56W (antibody, V domains shown) VH: EVQLLESGGGLVQPGGSLRLSCAASGFTFSKYFMFWVRQAPGKGLEWVSVISPSGWMTRYADSVKGRFTISRDNSKNTLYLQMNSLRAEDTAVYYCARVGYGGNSDYWGQGTLVTVSS VL: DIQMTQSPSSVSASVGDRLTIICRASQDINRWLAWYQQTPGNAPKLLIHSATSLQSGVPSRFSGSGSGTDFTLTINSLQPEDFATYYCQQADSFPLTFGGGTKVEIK', 'fold affinity vs original', 1.51);

What value of fold affinity vs original has been recorded for this entry: C5A (XPA23) VH Y32E (antibody, V domains shown) VH: EVQLLESGGGLVQPGGSLRLSCAASGFTFSKEFMFWVRQAPGKGLEWVSVISPSGGMTRYADSVKGRFTISRDNSKNTLYLQMNSLRAEDTAVYYCARVGYGGNSDYWGQGTLVTVSS VL: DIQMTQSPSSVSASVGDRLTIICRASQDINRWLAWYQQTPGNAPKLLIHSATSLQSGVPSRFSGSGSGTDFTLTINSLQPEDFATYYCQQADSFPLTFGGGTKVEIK
0.12
